Known IC50 of a selection of binders
Target: T1, wild-type human PTHR (human, UniProt Q03431 27-593)
T1 construct: whole, on cells; also called PTHR-WT; intact PTHR
T1 sequence (looked up): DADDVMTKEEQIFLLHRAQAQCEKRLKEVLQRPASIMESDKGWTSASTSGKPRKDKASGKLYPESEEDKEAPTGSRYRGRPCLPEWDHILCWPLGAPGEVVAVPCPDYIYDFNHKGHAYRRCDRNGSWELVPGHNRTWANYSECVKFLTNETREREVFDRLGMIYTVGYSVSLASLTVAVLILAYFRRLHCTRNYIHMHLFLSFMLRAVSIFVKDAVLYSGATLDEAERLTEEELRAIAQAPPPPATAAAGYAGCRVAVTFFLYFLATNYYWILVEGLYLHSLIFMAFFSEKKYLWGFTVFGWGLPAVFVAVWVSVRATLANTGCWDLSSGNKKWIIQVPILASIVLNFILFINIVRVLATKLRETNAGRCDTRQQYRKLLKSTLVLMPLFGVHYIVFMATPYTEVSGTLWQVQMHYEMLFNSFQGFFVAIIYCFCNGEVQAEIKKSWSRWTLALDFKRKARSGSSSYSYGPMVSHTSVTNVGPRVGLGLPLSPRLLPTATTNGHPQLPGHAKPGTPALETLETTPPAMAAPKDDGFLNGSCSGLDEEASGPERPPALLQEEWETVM
Assay: competition binding, HKRK-B7 cells, 125I-PTH(1-34) tracer
Where no end group is shown, it is not given here.

- Binder: "SVSEIQLMHNLGKHLNSMEQVEWLRKKLQDV-NH2 [PTH(1-31)NH2 Arg^20→Gln]"
  IC50: "> 10 µM"
- Binder: "SVSEIQLMHNLGKHLNSMEKVEWLRKKLQDV-NH2 [PTH(1-31)NH2 Arg^20→Lys]"
  IC50: "> 10 µM"
- Binder: "SVSEIQLMHNLGKHLNSMEEVEWLRKKLQDV-NH2 [PTH(1-31)NH2 Arg^20→Glu]"
  IC50: "> 10 µM"

These measurements were taken from patent US20100081612A1.
